All figures here come from paper PMC9150124.

- Protocol: Stability in mouse liver microsomes
- Assay type: in vitro ADME
Assay Metric: MLM Cli

Below, 3 molecules whose answers are already recorded.
Answer with reported MLM Cli of OCc1cn(-c2ccc(Cl)c(C(F)(F)F)c2Cl)nn1 [7y]
6.7 μL/min/mg protein

Look up and state reported MLM Cli for OCc1cn(-c2ccc(Cl)c(Cl)c2)nn1 [6b]
88 μL/min/mg protein

Name the recorded MLM Cli of the molecule listed here: FC(F)(F)c1c(Cl)ccc(-n2ccnn2)c1Cl [8l]
3.2 μL/min/mg protein

Okay, now this molecule:
Provide only the value of recorded MLM Cli for FC(F)(F)c1c(Cl)cnc(-n2ccnn2)c1Cl [9c]
4.9/ND μL/min/mg protein
